Where these numbers come from: the supplement of paper PMC10567573

Each entry below carries its recorded protein stability index.
B1: DLC1 (parent)
chain: HVTHWMGQPFNSDDRNTACHHGLV

- Variants of: B1
- assay-name: protein stability index of a GFP-peptide fusion (GPS, HEK-293T) (PSI 1-6); higher = more stable;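 note: lentivirally expressed fusions sorted by FACS into six bins by GFP to DsRed ratio, PSI derived from sequencing read proportions per bin multiplied by bin number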
- condition-notes: c terminus: a fixed tail appended
Returns: the value as a bare number; no unit string appended.

Sample records with protein stability index:
* H20F | 2.3
* P9E | 2.3
* M6E | 3.24
* S12W | 1.92
* D13A | 1.48

Entry `L23G` : reported protein stability index = ?
2.49

Also `T3G` , if possible.
1.19

Also `G22L` , if possible.
2.23

Also `S12M` , if possible.
2.61

Also `G7H` , if possible.
1.97
